system: RPMI-8226 leukemia; assay: NCI tumour cell line growth inhibition, 48 h
property_label: TGI

Past entries and their recorded results:
| compound | system_name | result |
| --- | --- | --- |
| NCCCCN(CCCN)/[N+]([O-])=N\O | RPMI-8226 leukemia | > 100 µM |
| N#CC(NC12CC3CC(CC(C3)C1)C2)c1ccccc1C(F)(F)F (stereo unspecified) | RPMI-8226 leukemia | > 100 µM |
| Nn1c(=O)n(Cc2ccccc2)n(-c2ccccc2)c1=O | RPMI-8226 leukemia | > 100 µM |

### Prompt Fill blank: measured TGI of the compound CN1c2ccc(Cl)cc2C(=O)NC1c1ccc([N+](=O)[O-])s1 (stereo unspecified) is ____.
### Response 26.7 µM

### Prompt I would be grateful if you could share the reported TGI for Cn1c2c(c3ccccc31)CC1c3c(c4ccccc4n3C)CC21 (stereo unspecified) .
### Response > 100 µM

### Prompt Reported TGI, compound `NS(=O)(=O)c1ccc(NC2(C(=O)O)CCCC2)cc1` : ____
### Response > 100 µM

---

test system: MCF7 breast; assay: NCI tumour cell line growth inhibition, 48 h; in the data active = GI50 below about 0.43 µM; inactive = the rest
Please answer using one outcome listed in 1 for active, 0 for inactive

### Prompt How did this test come out for `COC(=O)[C@@H](C)CNS(=O)(=O)N(c1cc(C(F)(F)F)cc(C(F)(F)F)c1)C1CCN(Cc2ccc(F)cc2)CC1` ?
### Response 0

---

tested on: SF-539 CNS; assay: NCI tumour cell line growth inhibition, 48 h
property_label: TGI

| molecule | TGI |
| --- | --- |
| COc1cc(C2C(Cl)C(=O)N2NC(=O)c2ccc(NC(C)=O)cc2)cc(OC)c1OC (stereo not drawn) | > 100 µM |
| O=C(NNC(=S)Nc1cccc(Cl)c1)c1cc(-c2ccccc2)nc2ccccc12 | 29.8 µM |
| CC(C)=CCC/C(C)=C/C=C/C(C)=C/C=C/C(C)=C/C=C/C=C(C)/C=C/C=C(C)/C=C/[C@H]1C(C(C)(C)O)CC[C@]1(C)O (stereo partly drawn) | > 100 µM |
| CC(C)C(Nc1c2ccccc2nc2ccccc12)C(=O)O (stereo not drawn) | > 100 µM |
| COC(=O)C1=C(C)N(NC(=O)OC(C)(C)C)C(=O)C1=P(c1ccccc1)(c1ccccc1)c1ccccc1 | > 100 µM |

### Prompt What value of measured TGI is listed for COC1C=CC(O)C(CO)O1 (stereo not drawn) ?
### Response > 100 µM

### Prompt # TGI lookup, item C[C@@H]1CC(=O)C2CCCC1C2=O (stereo partly drawn)
### Response > 100 µM

### Prompt May I ask what TGI has been recorded for `CC1(C)C(=O)N(CCCCCCN2C(=O)C(C)(C)c3ccccc32)c2ccccc21` ?
### Response > 100 µM

### Prompt For the molecule shown here, `COc1ccc(Nc2c3ccccc3nc3occc23)cc1` , give the reported TGI.
### Response 20.8 µM

### Prompt Please look up its TGI: `O=C(N/N=C/c1ccccc1)c1c(-c2cccnc2)cnc2ccccc12`
### Response > 100 µM

### Prompt Which TGI reading was recorded for the molecule `N#CCN1C(=O)c2cccc3cc([N+](=O)[O-])cc(c23)C1=O` ?
### Response > 100 µM

### Prompt Form field: reported TGI of `CCN(CC)C(=O)Cn1c(C)cc2ccccc21`
### Response > 100 µM

### Prompt # TGI lookup, item NCC1Nc2ccccc2[C@@H](O)C1O (stereo partly drawn)
### Response > 100 µM

### Prompt Given the entry `O=C1/C(=N/O)Cc2c(Br)ccc(Br)c21` , report its measured TGI.
### Response > 100 µM

### Prompt Tell me the measured TGI of `COc1cc2nc3cc([N+](=O)[O-])ccc3c(NCCCNCCO)c2cc1OC` , please.
### Response 0.478 µM

### Prompt # query: TGI of entry `CC1(C)SCc2nc3ncccc3n21`
### Response > 100 µM

---

system: HCT-116 colon; test: NCI tumour cell line growth inhibition, 48 h
property_label: GI50

| compound | GI50 |
| --- | --- |
| CC(C)n1nc(-c2cc3cc(O)ccc3[nH]2)c2c(N)ncnc21 | 0.634 µM |
| CNc1ccc(C(=O)CC(O)CCC(C)C2OC(=O)CC(O)CC(=O)CC(O)CC(O)CC(O)CC(O)CC3(O)CC(O)C(C(=O)OC)C(CC(O[C@@H]4O[C@H](C)[C@@H](O)[C@H](N)[C@@H]4O)/C=C/C=C/C=C/C=C/C=C/C=C/C=C/C2C)O3)cc1 (some centres undefined) | 3.46 µM |
| c1cc(CNC23CC4CC(CC(C4)C2)C3)cc(C[N+](Cc2cccc(CNC34CC5CC(CC(C5)C3)C4)c2)(Cc2cccc(CNC34CC5CC(CC(C5)C3)C4)c2)Cc2cccc(CNC34CC5CC(CC(C5)C3)C4)c2)c1 (centres undefined) | 3.04 µM |

Now take the following compound into account.
### Prompt What reported GI50 corresponds to `CCOC(=O)c1c(C)n(Cc2ccc(Cl)cc2Cl)c2c1c(CN(C)C)c(O)c1[nH]cnc12` on HCT-116 colon?
### Response 19 µM

---

tested on: U251 CNS
Choose one outcome from this list and give only that: true for active, false for inactive

| given_smiles | assigned_label |
| --- | --- |
| CN1CCN(CCCOc2ccc3nc(Nc4ccc(Cl)c(C(F)(F)F)c4)ccc3c2)CC1 | false |
| COc1ccc(-c2n[nH]nc2-c2cc(OC)c(OC)c(OC)c2)cc1 | true |
| COc1ccccc1CNCCCN1C(=O)c2ccc3c4c(ccc(c24)C1=O)C(=O)N(CCCOCCCCOCCCN)C3=O | false |
| C=C1C(=O)O[C@H]2[C@H]1CC/C(COC(=O)C(=O)c1cn(Cc3ccccc3)c3ccccc13)=C\CC[C@@]1(C)O[C@@H]21 | false |
| COc1cc2ncnc(Nc3ccc(C)c(O)c3)c2cc1OC | false |
| Cc1cccc(N2CCN(C(=S)c3ccc4c(c3)OCO4)CC2)c1 | false |

// switching to the query molecule
### Prompt Record request — test call for `COC1=CC(=O)c2nc(-c3cccc(C)n3)[nH]c2C1=O`
### Response false

---

tested on: LOX IMVI melanoma; assay: NCI tumour cell line growth inhibition, 48 h
property_label: TGI

| molecule | TGI |
| --- | --- |
| O=C1C(CN2CCCCC2)CCC1CN1CCCCC1 (stereo unspecified) | 31.7 µM |
| O=C1/C(=C/c2ccc([N+](=O)[O-])cc2)C(=O)N(c2ccccc2)C1c1ccccc1 (stereo unspecified) | > 10 µM |
| Cc1c(S(=O)(=O)/N=C(\NO)Nc2ccc(Cl)c(Cl)c2)sc2ccc(Cl)cc12 | 43.3 µM |
| CC1OC(OC2C(O[C@H]3CC[C@@]4(C)C(=CC[C@H]5[C@@H]6C[C@@H]7O[C@]8(CC[C@@H](CO)CO8)[C@@H](C)[C@@H]7[C@@]6(C)CC[C@@H]54)C3)OC(CO)C(O)C2OC2OC(CO)C(O)C(O)C2O)C(O)C(O)C1O (stereo partly specified) | 3.39 µM |
| Cn1c2c(c3ccccc31)CC1c3c(c4ccccc4n3C)CC21 (stereo unspecified) | > 100 µM |
| CNc1ccc(C(=O)CC(O)CCC(C)C2OC(=O)CC(O)CC(=O)CC(O)CC(O)CC(O)CC(O)CC3(O)CC(O)C(C(=O)OC)C(CC(O[C@@H]4O[C@H](C)[C@@H](O)[C@H](N)[C@@H]4O)/C=C/C=C/C=C/C=C/C=C/C=C/C=C/C2C)O3)cc1 (stereo partly specified) | > 100 µM |

### Prompt Record request: TGI value, item O=C1CC(=Nc2ccc(Cl)cc2)C(c2ccccc2)N1c1ccccc1 (stereo unspecified)
### Response 61.5 µM

### Prompt Dear colleague, I am looking for the recorded TGI of the following molecule: `COc1nc2ccccc2cc1-c1nc2c(cnn2-c2ccc(Br)cc2)c(=O)[nH]1`
### Response > 50 µM

### Prompt I have this molecule here, `N#CCN1C(=O)c2cccc3cc([N+](=O)[O-])cc(c23)C1=O` , and I need its recorded TGI.
### Response 66.8 µM

### Prompt // query TGI value for entry `COc1cc(Cn2c3c(c4cc(O)ccc42)Cc2ccccc2C3=O)cc(OC)c1`
### Response > 100 µM

### Prompt Bench note: what TGI did `O=C1OC(c2ccccc2)=N/C1=C\c1cccc2ccccc12` show?
### Response > 100 µM

---

test system: HS 578T breast; assay: NCI tumour cell line growth inhibition, 48 h
We begin with a simple list: items and their reported TGI.

| compound | TGI |
| --- | --- |
| CC(=O)OCC12C(=O)C[C@@H](C)C3(CC(c4ccoc4)OC3=O)C1CCC(OC(C)=O)C21CO1 (some centres undefined) | > 100 µM |
| Cc1cc(S(=O)(=O)Nc2nnc(-c3ccccc3)c(-c3ccccc3)n2)c(SCC(N)=O)cc1Cl | > 100 µM |
| O=C(O)Cc1cccc2c(=O)c3ccccc3oc12 | > 100 µM |

### Prompt Fill blank: measured TGI of the compound CC1OC(OC2C(O[C@H]3CC[C@@]4(C)C(=CC[C@H]5[C@@H]6C[C@@H]7O[C@]8(CC[C@@H](CO)CO8)[C@@H](C)[C@@H]7[C@@]6(C)CC[C@@H]54)C3)OC(CO)C(O)C2OC2OC(CO)C(O)C(O)C2O)C(O)C(O)C1O (some centres undefined) is ____.
### Response 8.06 µM
